# tgt: Amine oxidase [flavin-containing] B (Rattus norvegicus, UniProt P19643)
# Sequence (P19643 whole entry): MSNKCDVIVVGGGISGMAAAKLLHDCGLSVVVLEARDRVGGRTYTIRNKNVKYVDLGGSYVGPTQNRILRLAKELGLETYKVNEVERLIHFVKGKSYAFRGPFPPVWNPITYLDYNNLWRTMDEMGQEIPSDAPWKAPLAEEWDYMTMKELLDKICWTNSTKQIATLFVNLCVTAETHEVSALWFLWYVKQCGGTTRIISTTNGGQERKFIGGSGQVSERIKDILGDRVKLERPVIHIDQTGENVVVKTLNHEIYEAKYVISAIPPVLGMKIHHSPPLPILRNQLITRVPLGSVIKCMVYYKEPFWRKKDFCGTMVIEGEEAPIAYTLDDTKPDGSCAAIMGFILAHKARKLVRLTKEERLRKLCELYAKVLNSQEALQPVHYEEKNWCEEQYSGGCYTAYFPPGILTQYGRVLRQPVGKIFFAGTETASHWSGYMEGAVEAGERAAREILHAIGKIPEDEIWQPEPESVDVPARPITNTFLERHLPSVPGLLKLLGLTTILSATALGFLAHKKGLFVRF
metric: pKi
Lab note: report pKi as minus log10 of the concentration in molar units, number only.

[ask] Using the record for O=C(/C=C/C=C/c1ccc2c(c1)OCO2)N1CCCCC1 , state its measured pKi.
[reply] 4.04

* * *

# tgt: Amine oxidase [flavin-containing] A (Rattus norvegicus, UniProt P21396)
# Sequence (P21396 whole entry): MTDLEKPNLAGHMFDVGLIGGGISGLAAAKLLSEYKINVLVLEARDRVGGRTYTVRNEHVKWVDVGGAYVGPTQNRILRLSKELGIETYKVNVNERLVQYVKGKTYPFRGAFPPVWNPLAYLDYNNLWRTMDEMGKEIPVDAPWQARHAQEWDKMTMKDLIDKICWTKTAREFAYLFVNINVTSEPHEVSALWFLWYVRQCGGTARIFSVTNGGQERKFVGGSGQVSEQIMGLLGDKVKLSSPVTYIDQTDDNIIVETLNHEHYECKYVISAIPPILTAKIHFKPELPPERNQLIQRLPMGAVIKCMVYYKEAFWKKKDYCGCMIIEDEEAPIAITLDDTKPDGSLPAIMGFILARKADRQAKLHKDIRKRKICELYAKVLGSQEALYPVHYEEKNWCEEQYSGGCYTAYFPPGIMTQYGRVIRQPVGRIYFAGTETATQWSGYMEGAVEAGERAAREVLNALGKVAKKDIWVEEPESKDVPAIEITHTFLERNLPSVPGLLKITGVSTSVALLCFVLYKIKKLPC
metric: Ki
Report field: quantity (unit follows the number).

[ask] Report Ki for O=C(/C=C/C=C/c1ccc2c(c1)OCO2)N1CCCCC1
[reply] 49.3 µM

* * *

# tgt: UniProtKB Q8BW75
# Sequence (Q8BW75 whole entry): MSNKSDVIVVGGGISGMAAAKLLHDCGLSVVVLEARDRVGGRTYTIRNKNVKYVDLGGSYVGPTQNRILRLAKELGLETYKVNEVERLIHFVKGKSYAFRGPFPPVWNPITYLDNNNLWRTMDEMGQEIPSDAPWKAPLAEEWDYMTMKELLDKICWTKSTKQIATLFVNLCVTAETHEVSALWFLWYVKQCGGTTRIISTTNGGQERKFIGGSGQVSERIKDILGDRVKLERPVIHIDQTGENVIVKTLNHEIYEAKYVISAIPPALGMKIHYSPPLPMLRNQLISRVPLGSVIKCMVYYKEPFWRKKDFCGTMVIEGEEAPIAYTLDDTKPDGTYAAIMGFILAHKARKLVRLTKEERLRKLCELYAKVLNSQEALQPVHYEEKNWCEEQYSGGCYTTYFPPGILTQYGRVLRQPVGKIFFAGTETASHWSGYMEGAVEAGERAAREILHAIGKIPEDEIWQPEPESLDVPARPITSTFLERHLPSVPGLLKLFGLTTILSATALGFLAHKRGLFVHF
metric: pKi
To interpret pKi, take it as minus log10 of a concentration measured in moles per litre.

[ask] Under UniProtKB Q8BW75: report pKi of COC(=O)/C=C/C=C/c1ccc2c(c1)OCO2 [METHYL PIPERATE] .
[reply] 5.80
